# study system: human α2A adrenergic receptor (Homo sapiens)
# Sequence (P08913 whole entry): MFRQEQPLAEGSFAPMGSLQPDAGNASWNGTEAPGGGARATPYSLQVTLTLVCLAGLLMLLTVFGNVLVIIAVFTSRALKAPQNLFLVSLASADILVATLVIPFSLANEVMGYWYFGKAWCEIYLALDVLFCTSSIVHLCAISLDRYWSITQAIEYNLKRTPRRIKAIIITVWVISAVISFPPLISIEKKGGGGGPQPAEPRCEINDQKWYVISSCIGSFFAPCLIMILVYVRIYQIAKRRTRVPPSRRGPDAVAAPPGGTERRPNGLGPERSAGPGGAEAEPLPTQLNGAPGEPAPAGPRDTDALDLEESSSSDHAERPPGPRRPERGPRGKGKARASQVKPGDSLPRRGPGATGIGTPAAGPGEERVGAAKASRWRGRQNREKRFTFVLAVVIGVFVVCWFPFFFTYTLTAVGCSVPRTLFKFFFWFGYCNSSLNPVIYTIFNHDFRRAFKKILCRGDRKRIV
# method: Competition binding, [3H]rauwolscine, α2A receptor
value type: pKi
Answers are plain numbers, as −log10 of the molar value.

Input C=Cc1sc2ccc(Cl)c3c2c1CN(C)CC3 [SKF-104856, reference compound] . Output pKi: 7.30

---

Provide the recorded Alpha-2 Adrenergic a2c (pK1) for the entries that follow.
# study system: human α2C adrenergic receptor (Homo sapiens)
# Sequence (P18825 1-462): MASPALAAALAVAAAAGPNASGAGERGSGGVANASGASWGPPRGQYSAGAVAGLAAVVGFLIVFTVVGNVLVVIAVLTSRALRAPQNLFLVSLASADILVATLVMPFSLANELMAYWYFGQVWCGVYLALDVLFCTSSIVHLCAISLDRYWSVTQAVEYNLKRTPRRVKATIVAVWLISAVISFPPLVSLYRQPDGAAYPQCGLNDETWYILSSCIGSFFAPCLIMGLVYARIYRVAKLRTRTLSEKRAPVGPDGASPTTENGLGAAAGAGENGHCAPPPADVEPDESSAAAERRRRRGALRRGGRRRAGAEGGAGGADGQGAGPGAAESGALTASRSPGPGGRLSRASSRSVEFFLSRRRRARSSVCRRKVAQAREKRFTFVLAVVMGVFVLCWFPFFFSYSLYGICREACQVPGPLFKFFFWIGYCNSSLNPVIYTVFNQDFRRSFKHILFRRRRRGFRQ
# method: Competition binding, [3H]rauwolscine, α2C receptor
# stated conditions: Table 2, cloned human receptor
Give bare numbers.

For every listed record, write down its Alpha-2 Adrenergic a2c (pK1).
1. O=C(CCCN1CCC(NC(=O)c2ccccc2)CC1)c1ccc(Cl)cc1
2. COC(=O)C1=C(C)NC(C)=C(C(=O)OCCCN2CCC(c3ccccc3)(c3ccccc3)CC2)C1c1ccc([N+](=O)[O-])cc1.Cl (stereo not shown)
3. COc1ccccc1N1CCN(CCCNc2c(C)c(=O)n(C)c(=O)n2C)CC1 [5-Methyl-Urapidil, 5-methylurapidil, reference compound]
4. O=C(CCCN1CCC(NC(=O)c2ccccc2)CC1)c1ccccc1

1. 6.09
2. 5.77
3. 6.88
4. 5.90
